Test system: NCI-H460 lung
Experiment: NCI-60 one-dose screen, 48 h (100 = growth as untreated, 0 = no growth, -100 = all killed)
Settings: 10 µM unless noted
About 83,000 compounds went through this panel and 20% of them were active in at least one assay; those are over-represented in the sample as a whole.
Reported growth values follow for various molecules
Enter your answer as a number in %; do not include the unit.

# annotated cases, reported growth shown
Quick one: growth of `NC(=S)N/N=C(/C=C/c1cn(-c2ccccc2)nc1-c1ccc(Cl)cc1)c1cc2ccccc2oc1=O` ?
18.3

Which growth is reported for this molecule? `C#C[C@]1(O)CC[C@H]2[C@@H]3CC=C4c5sc(C6CCOCC6)nc5CC[C@]4(C)[C@H]3CC[C@@]21C`
79.8

Form field: reported growth of CCOC(=O)CC(=O)CSC1=NC2C(NN1)N(C)C(=O)N2C (stereo not given)
105

Reported growth, molecule `Fc1ccccc1/C=C(/C1=NCCN1)n1cnc2ccccc21` : ____
104

# lookup: growth of `CN(C)c1ccc(/C=N/Nc2nc(N/N=C/c3ccc(N(C)C)cc3)nc(N3CCOCC3)n2)cc1`
16.7

New cases:
Consider the molecule O=C(COc1ccc(C2SCC(=O)N2c2ccc(F)cc2)cc1)c1ccccc1 (stereo not given) and give its measured growth.
108

Can you share its growth? I mean this molecule: `NCCN1CCN(c2nc(-c3ccccc3)nc3nc(-c4ccccc4)oc23)CC1`
-67.7

What measured growth goes with `N#C/C(=C\c1ccc(Cl)cc1Cl)C(N)=O` ?
106

Reported growth for `C/C(=C(/c1ccc(O)cc1)c1ccc(OCCN(C)C)cc1)c1ccc(Cl)cc1` : what is it?
15

I am curious: what growth value has been reported for `O=c1[nH]c(CCl)nc2c1cnn2-c1ccccc1` ?
101

###

Test system: MDA-MB-231 breast
Experiment: NCI-60 one-dose screen, 48 h (100 = growth as untreated, 0 = no growth, -100 = all killed)
Conditions: 10 µM unless noted
The panel holds about 83,000 compounds, 20% with a hit somewhere; the sample as a whole holds those more often. Activity calls are given as the source filed them. How the source made its calls: active means growth percent below 10; inactive means the rest.
# growth per entry

Solved cases (7 shown):
Would you mind telling me what growth value was observed for Cn1c(SC(C(=O)Nc2ccc(F)cc2)c2ccccc2)nc2ccccc2c1=O (stereo not drawn) ?
99.4% (inactive)

What value of measured growth is listed for C[C@@H]1C[C@H]2C(=O)OCC(NC(=O)[C@H](Cc3cc(F)cc(F)c3)NC(=O)Nc3ccc(Cl)cc3F)C(=O)N3CCC[C@H]3C(=O)N3CCCC[C@H]3C(=O)N[C@@H](C)C(=O)N2C1 (stereo partly drawn) ?
27.3% (inactive)

# lookup: growth of `COc1ccc(-c2nc(SCCC(C)C)nc(N/N=C\c3ccc(O)cc3)c2C#N)cc1`
54.2% (inactive)

What value of growth has been recorded for this entry: `CC(C)c1nn(-c2ccccc2)c(N2CCCCC2)c1/C=N/NC(N)=S`
107% (inactive)

State the recorded growth for this entry: `CCN1CCN(Cc2ccc(C(=O)Nc3nc4ccc(Oc5ccnc(C(=O)NC)c5)cc4s3)cc2C(F)(F)F)CC1`
52% (inactive)

Query: growth; subject: `COc1ccc(-c2nn(-c3ccccc3)cc2/C=C/C(=O)c2ccc(NC(=O)CCCCCCC(=O)NO)cc2)cc1`
99% (inactive)

What value of growth has been reported for the following compound? CS(=O)c1nccc(-c2c(-c3ccc(F)c(OCc4ccc(F)cc4)c3)nc3sccn23)n1 (stereo not drawn)
67.8% (inactive)

New cases:
Would you kindly share the measured growth for `O=C(Nc1cc(Cl)cc(Cl)c1)Nc1nc2ccc([N+](=O)[O-])cc2s1` ?
-0.651% (active)

###

growth: recorded values
Tested on: 786-0 renal
Test: NCI-60 one-dose screen, 48 h (100 = growth as untreated, 0 = no growth, -100 = all killed)
Details: 10 µM unless noted
This is part of a sample that, as a whole, favours compounds with a hit. Of some 83,000 tested, about 20% had one in any assay. Calls of active or inactive are those of the source. Rule for the calls: active = growth percent below 10; inactive = the rest.

Give its growth value. Item: `Cc1nc(-c2cc3ccccc3c(N3CCN(C)CC3)n2)cs1`
93.2% (inactive)

// lookup growth for `COc1ccc(CN2C(=O)/C(=C/c3nc(CO)cs3)SC2=S)cc1`
51.2% (inactive)

// query growth value for entry COc1ccc(C2C(C#N)=C(N)Oc3c2sc2ccc(C)cc32)cc1 (stereo not given)
42% (inactive)

Request the reported growth associated with `COc1ccccc1N1CCN(C2=NN=C(c3cccc(Cl)c3)c3ccccc3C2)CC1`
27% (inactive)

Report growth for `N=c1c2cc(-c3ccccc3)oc2ncn1/N=C/c1ccccc1` please.
78.6% (inactive)

# input molecule: CCN1C(=O)N(CC)C2C1NN=C1SC(c3ccccc3)=CC(=O)N12 (stereo not given) ; wanted: its growth
37.6% (inactive)

More entries:
Item `NS(=O)(=O)c1ccc(Nc2nc(N/N=C/c3ccc(F)cc3)nc(Nc3ccccc3)n2)cc1` has what recorded growth?
58.8% (inactive)

Which measured growth value corresponds to `COc1cc(/C=C/C(=O)c2ccc(NC(=O)CSc3nnc(-c4ccc5nc(-c6ccccc6)[nH]c5c4)o3)cc2)cc(OC)c1OC` ?
75.4% (inactive)

Need growth of CCC(CC)n1c(=O)c(SC2=NC3C(NN2)N(CC)C(=O)N3CC)c(C(=O)O)c2ccccc21 (stereo not given) , thanks.
27.9% (inactive)

Any idea what its growth is? The molecule is `O=c1[nH]c(CNc2ccc(NCc3c(-c4ccccc4)no[n+]3[O-])cc2)nc2c1cnn2-c1ccccc1`
86% (inactive)

###

System: IGROV1 ovarian
Assay: NCI-60 one-dose screen, 48 h (100 = growth as untreated, 0 = no growth, -100 = all killed)
Details: 10 µM unless noted
The panel holds about 83,000 compounds, 20% with a hit somewhere; the sample as a whole holds those more often.
Assign label 1 whenever growth does not fall below 30%; assign label 0 whenever it does.

Evaluate `Cc1ccccc1/C=C/c1nn2c(-c3ccoc3C)nnc2s1` : growth at minimum 30%?
label 1

Identify whether the reported growth of the following compound is 30% or greater: COc1ccc(C2CC(c3ccc(Nc4nc(NCCO)nc(Nc5ccc(Cl)cc5)n4)cc3)=Nc3c(N)nc(N)nc3N2)cc1 (stereo unspecified)
label 1

Does the compound `O=C(CCCCCCN1CC(=O)N2[C@@H](c3cccc(Br)c3)c3[nH]c4ccccc4c3C[C@H]2C1=O)NO` have recorded growth that is 30% or more?
label 0

Can `COc1c([C@@H](CC(C)C)OC(C)=O)ccc2c1C(=O)OCc1cc(C)cc(O)c1O2` be said to have growth at or above 30%?
label 1

Assess whether reported growth for `Cc1nn(-c2ccc(Br)cc2)c2nc(CCl)[nH]c(=O)c12` sits at 30% or higher.
label 1

Record `COCCOc1ccc(-c2csc(NC(C)=O)n2)cc1NS(=O)(=O)c1cccc2c(N(C)C)cccc12` ; criterion: growth no lower than 30%. Met?
label 1

Hi, just wondering whether `Cn1ccnc1C(=O)/C=C/c1ccc(C(=O)Nc2ccc(NC(=O)CCNC(=O)c3csc(Br)n3)cc2)cc1` shows growth of 30% or higher.
label 1

Please check the record `COc1cc(OC)c(S(N)(=O)=O)cc1C(=O)/C=C/c1ccccc1` and state if its growth is at or above 30%.
label 0

More entries:
Does the compound CC1OC(O[C@@H]2C(O)C(CO)OC(O[C@H]3COC(O[C@H]4CC[C@]5(C)[C@H]6CC[C@]78OC[C@@]9(CC[C@](C)(C=O)C[C@H]97)[C@H](O)C[C@@]8(C)[C@]6(C)CC[C@H]5C4(C)C)[C@@H](OC4OC(CO)[C@@H](O)[C@@H](O)[C@@H]4O)[C@@H]3O)[C@H]2OC2OC[C@@H](O)[C@@H](O)[C@@H]2O)[C@@H](O)[C@@H](O)[C@H]1O (stereo partly specified) have recorded growth that is 30% or more?
label 1

Hi, just wondering whether `O=c1[nH]c2cc(Cl)ccc2n1C1CCN(c2ccc3nnc(Cl)n3n2)CC1` shows growth of 30% or higher.
label 1

Decide: is the reported value of growth for `CCOC(=O)Nc1ccc(-c2nc(-c3cccc(O)c3)c(-c3ccnc(Br)c3)[nH]2)cc1` equal to or greater than 30%?
label 1

Is reported growth greater than or equal to 30% here: `O=C(Nc1ccc(Cl)cc1)Nc1nc2ccc([N+](=O)[O-])cc2s1`
label 0

Is it the case that `O=C1[C@H]2Cc3c([nH]c4ccccc34)[C@@H](c3c(Cl)cccc3Cl)N2C(=O)CN1C1CCN(Cc2ccccc2)CC1` has growth reaching or exceeding 30%?
label 1

Could you verify whether the entry CCN1C(=O)N(CC)C2SC(N/N=C/c3ccc(F)cc3)=NC21 (stereo unspecified) shows growth of no less than 30%?
label 0

###

Tested on: CAKI-1 renal
Experiment: NCI-60 one-dose screen, 48 h (100 = growth as untreated, 0 = no growth, -100 = all killed)
Details: 10 µM
About 83,000 compounds went through this panel and 20% of them were active in at least one assay; those are over-represented in the sample as a whole.
Hi, to clarify the labels: Y covers growth from 70% upward, N covers anything below 70%.

Consider the following illustrative entries.
API: above_or_equal(metric=growth, cutoff=70%) for item `NC(=O)C(=Cc1ccc(Cl)cc1)C(N)=O`
N

// inclusive: growth at least 70%? input: `COc1cc(-c2nc(SCc3ccc(C)cc3)[nH]c(=O)c2C#N)ccc1OCc1ccccc1`
Y

Does the reported growth for CC(C)(C)n1nnnc1C(Nc1nccs1)c1cc2cccc3ccc4cccc1c4c32 (stereo not given) fall at or above the 70% mark?
N

Now look at this entry.
Record `COc1cc(/C=N/n2cnc3oc(-c4ccccc4)cc3c2=N)cc(CN2CCOCC2)c1O` ; criterion: growth no lower than 70%. Met?
N

Hey, just so you know, these numbers are from PubChem BioAssay (NCI).
